This collection of values is drawn from patent US20250163162A1.

Experimental Target: T1, IL10Rα/IL2Rγ receptor (human) (UniProt Q13651)
T1 sequence (looked up) 1: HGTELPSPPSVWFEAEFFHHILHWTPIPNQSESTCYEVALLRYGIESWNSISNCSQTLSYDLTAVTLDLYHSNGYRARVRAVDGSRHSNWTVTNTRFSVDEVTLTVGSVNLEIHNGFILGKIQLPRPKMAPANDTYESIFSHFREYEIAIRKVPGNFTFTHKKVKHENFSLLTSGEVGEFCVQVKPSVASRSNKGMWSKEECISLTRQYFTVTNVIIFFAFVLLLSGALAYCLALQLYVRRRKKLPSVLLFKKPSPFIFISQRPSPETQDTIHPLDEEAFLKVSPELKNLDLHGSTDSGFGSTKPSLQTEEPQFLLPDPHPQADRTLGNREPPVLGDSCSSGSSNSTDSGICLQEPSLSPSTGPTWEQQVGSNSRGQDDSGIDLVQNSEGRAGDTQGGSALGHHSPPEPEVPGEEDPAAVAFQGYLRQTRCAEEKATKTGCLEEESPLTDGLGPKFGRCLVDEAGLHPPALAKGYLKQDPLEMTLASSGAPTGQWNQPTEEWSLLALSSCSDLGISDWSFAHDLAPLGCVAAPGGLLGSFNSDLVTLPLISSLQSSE
T1 sequence (looked up) 2: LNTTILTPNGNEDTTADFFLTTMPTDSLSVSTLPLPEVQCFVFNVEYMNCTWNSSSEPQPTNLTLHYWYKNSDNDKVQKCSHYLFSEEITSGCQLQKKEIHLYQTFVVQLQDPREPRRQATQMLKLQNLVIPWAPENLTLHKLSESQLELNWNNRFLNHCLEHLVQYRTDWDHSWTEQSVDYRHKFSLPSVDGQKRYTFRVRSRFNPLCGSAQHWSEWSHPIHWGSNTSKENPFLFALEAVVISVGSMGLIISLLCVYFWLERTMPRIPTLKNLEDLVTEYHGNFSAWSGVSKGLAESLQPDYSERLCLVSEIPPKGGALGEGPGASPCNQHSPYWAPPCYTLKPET
Test Summary: cell-based or functional assay
Measured Property: IL-1β secretion, LPS treated monocytes, at 100 µM (pg/mL)
Your answer is read as pg/mL, so omit the unit and give the number.

Below, 3 binders whose answers are already recorded.
binder="hIL10Ra_VHH14 - hIL2Rg_VHH19, linker …, tag his (bispecific antibody, not shown: small tags and cut ends) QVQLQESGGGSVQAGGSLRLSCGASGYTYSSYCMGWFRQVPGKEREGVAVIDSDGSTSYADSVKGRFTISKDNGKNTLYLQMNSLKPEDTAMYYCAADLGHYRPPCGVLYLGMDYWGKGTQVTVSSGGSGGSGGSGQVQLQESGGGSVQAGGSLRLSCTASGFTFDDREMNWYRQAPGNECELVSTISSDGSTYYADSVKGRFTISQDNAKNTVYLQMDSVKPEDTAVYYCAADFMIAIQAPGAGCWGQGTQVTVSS" unit_name=pg/mL value_reported=8780
binder="hIL10Ra_VHH14 - hIL2Rg_VHH19, linker GS, tag his (bispecific antibody, not shown: small tags and cut ends) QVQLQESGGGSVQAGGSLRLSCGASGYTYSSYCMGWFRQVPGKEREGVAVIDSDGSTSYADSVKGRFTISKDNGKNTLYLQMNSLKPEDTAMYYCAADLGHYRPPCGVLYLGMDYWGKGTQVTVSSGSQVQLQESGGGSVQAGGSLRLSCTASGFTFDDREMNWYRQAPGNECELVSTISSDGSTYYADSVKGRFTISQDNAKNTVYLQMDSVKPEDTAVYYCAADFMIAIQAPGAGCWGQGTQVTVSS" unit_name=pg/mL value_reported=8140
binder="hIL10Ra_VHH14 - hIL2Rg_VHH19, linker GGGSGGGS, tag his (bispecific antibody, not shown: small tags and cut ends) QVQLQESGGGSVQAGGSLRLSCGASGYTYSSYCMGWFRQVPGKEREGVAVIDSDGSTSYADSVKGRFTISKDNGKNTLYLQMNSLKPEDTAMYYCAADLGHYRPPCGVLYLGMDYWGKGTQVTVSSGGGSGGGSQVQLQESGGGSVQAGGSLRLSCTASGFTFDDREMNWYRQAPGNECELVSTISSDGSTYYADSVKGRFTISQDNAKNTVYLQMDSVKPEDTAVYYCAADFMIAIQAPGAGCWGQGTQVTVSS" unit_name=pg/mL value_reported=6840

# evaluate next
Please give the documented IL-1β secretion, LPS treated monocytes, at 100 µM of hIL10Ra_VHH14 - hIL2Rg_VHH19, linker GGGS, tag his (bispecific antibody, not shown: small tags and cut ends) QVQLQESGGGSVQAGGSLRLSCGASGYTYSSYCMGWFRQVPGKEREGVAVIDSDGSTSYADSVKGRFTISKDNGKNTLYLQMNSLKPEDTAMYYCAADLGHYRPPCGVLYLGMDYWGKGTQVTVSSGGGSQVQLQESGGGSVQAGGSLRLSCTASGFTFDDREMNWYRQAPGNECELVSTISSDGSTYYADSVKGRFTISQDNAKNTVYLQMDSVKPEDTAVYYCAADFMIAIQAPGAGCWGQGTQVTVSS
6580
